Origin of values: patent US10081624B2

# system_tested: HDAC6 enzyme (Homo sapiens, UniProt Q9UBN7)
# Construct: prepared by transducing full length HDAC1 and HDAC6 genes into Sf-9 insect cells; GST; purchased SignalChem; host or cells: Sf-9 insect cells
# Sequence (Q9UBN7 whole entry): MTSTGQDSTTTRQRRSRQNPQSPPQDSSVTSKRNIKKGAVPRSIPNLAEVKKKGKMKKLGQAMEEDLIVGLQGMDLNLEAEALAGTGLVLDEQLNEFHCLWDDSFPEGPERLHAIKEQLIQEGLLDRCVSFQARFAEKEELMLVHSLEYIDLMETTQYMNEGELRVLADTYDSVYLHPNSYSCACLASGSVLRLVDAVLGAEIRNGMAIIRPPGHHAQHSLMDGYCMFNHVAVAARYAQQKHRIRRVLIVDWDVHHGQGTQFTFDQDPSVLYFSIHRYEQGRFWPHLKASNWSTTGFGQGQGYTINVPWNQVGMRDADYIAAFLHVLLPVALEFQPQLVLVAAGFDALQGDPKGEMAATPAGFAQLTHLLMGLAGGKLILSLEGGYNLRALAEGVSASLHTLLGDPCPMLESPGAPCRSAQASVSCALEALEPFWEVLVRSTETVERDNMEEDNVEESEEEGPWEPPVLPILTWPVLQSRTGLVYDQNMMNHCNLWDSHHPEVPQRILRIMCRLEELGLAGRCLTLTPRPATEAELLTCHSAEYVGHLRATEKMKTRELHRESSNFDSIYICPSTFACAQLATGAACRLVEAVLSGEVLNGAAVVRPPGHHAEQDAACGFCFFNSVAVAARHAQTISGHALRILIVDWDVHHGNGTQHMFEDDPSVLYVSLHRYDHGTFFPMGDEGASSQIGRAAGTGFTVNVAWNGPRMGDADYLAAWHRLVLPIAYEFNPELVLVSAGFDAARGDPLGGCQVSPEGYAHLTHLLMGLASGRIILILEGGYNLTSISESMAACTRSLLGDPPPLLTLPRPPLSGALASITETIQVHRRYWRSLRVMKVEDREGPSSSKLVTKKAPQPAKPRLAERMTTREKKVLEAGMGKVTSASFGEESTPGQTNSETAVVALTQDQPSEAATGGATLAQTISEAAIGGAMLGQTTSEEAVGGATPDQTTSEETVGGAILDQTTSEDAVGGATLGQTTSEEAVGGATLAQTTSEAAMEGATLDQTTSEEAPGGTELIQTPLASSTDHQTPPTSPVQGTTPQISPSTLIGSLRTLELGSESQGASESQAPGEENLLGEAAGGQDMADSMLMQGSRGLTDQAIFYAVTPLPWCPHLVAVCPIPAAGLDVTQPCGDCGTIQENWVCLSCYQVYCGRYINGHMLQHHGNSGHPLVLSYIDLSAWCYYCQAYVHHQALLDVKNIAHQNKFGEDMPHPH
# method: HDAC6 enzyme inhibitory assay (HDAC-Glo I/II Assay kit)
# Type: biochemical
# stated_conditions: 1 μM test compound; read-out: HDAC6 inhibitory rate (%) (1 μM)
inhibition at 1 µM by entry:

- molecule: "Cc1csc(C(=O)N2CCOC[C@@H]2CNC(=O)c2ccc(-c3noc(C(F)(F)F)n3)cc2)c1"
  inhibition at 1 µM, %: 98
- molecule: "Cc1nnsc1C(=O)N1CCOC[C@@H]1CNC(=O)c1ccc(-c2noc(C(F)(F)F)n2)cn1"
  inhibition at 1 µM, %: 98
- molecule: "Cc1nonc1C(=O)N1CCOC[C@H]1CNC(=O)c1ccc(-c2noc(C(F)(F)F)n2)cc1"
  inhibition at 1 µM, %: 98
- molecule: "Cc1cc(C(=O)NCC2COCCN2C(=O)c2ccccc2)ccc1-c1noc(C(F)(F)F)n1 (stereo not drawn)"
  inhibition at 1 µM, %: 36
- molecule: "O=C(NC[C@H]1COCCN1C(=O)N1CCC(F)(F)CC1)c1ccc(-c2noc(C(F)(F)F)n2)cc1"
  inhibition at 1 µM, %: 101
- molecule: "O=C(NCC1COCCN1C(=O)C1(c2ccccc2)COC1)c1ccc(-c2noc(C(F)(F)F)n2)cc1 (stereo in doubt)"
  inhibition at 1 µM, %: 98
- molecule: "O=C(NC[C@H]1COCCN1C(=O)C1C2CC3CC(C2)CC1C3)c1ccc(-c2noc(C(F)(F)F)n2)cn1 (stereo partly drawn)"
  inhibition at 1 µM, %: 99
- molecule: "Cc1ccsc1C(=O)N1CCOCC1CNC(=O)c1ccc(-c2noc(C(F)(F)F)n2)s1 (stereo not drawn)"
  inhibition at 1 µM, %: 96
- molecule: "O=C(NC[C@@H]1COCCN1C(=O)COc1ccccc1)c1ccc(-c2noc(C(F)(F)F)n2)cc1"
  inhibition at 1 µM, %: 94
- molecule: "O=C(NCC1COCCN1C(=O)c1ccccc1)c1ccc(-c2noc(C(F)(F)F)n2)cc1F (stereo not drawn)"
  inhibition at 1 µM, %: 99
- molecule: "Cc1ncsc1C(=O)N1CCOC[C@@H]1CNC(=O)c1ccc(-c2noc(C(F)(F)F)n2)cc1"
  inhibition at 1 µM, %: 100
- molecule: "Cn1nc2ccccc2c1C(=O)N1CCOC[C@@H]1CC(=O)Nc1ccc(-c2noc(C(F)(F)F)n2)cc1"
  inhibition at 1 µM, %: 97
- molecule: "O=C(NC[C@H]1COCCN1C(=O)c1cccc(F)c1)c1ccc(-c2noc(C(F)(F)F)n2)cn1"
  inhibition at 1 µM, %: 97
- molecule: "O=C(NC[C@@H]1COCCN1C(=O)C(F)(F)c1ccccc1)c1ccc(-c2noc(C(F)(F)F)n2)s1"
  inhibition at 1 µM, %: 99
- molecule: "Cc1nc2ccccn2c1C(=O)N1CCOCC1CNC(=O)c1ccc(-c2noc(C(F)(F)F)n2)cc1 (stereo in doubt)"
  inhibition at 1 µM, %: 97

* * *

# system_tested: HDAC6 enzyme (Homo sapiens)
# Construct: prepared by transducing full length HDAC1 and HDAC6 genes into Sf-9 insect cells; GST; purchased SignalChem; host or cells: Sf-9 insect cells
# method: HDAC6 enzyme inhibitory assay (HDAC-Glo I/II Assay kit)
# Type: biochemical
# stated_conditions: 1 μM test compound; 1 µM
Listed here are compounds together with their documented HDAC6 inhibitory rate (%) (1 μM).

- compound: "O=C(NCC1COCCN1C(=O)C1CCNC1=O)c1ccc(-c2noc(C(F)(F)F)n2)cc1 (stereo in doubt)"
  system_tested: "HDAC6 enzyme (Homo sapiens)"
  HDAC6 inhibitory rate (%) (1 μM): 76
- compound: "O=C(NCC1COCCN1C(=O)c1ccccc1)c1ccc(-c2noc(C(F)(F)F)n2)s1 (single isomer, unassigned)"
  system_tested: "HDAC6 enzyme (Homo sapiens)"
  HDAC6 inhibitory rate (%) (1 μM): 96
- compound: "COc1cccc(C(=O)N2CCOC[C@@H]2CNC(=O)c2ccc(-c3noc(C(F)(F)F)n3)cc2)c1"
  system_tested: "HDAC6 enzyme (Homo sapiens)"
  HDAC6 inhibitory rate (%) (1 μM): 101
- compound: "O=C(NC[C@H]1COCCN1C(=O)c1ccncc1)c1ccc(-c2noc(C(F)(F)F)n2)cc1"
  system_tested: "HDAC6 enzyme (Homo sapiens)"
  HDAC6 inhibitory rate (%) (1 μM): 98
- compound: "O=C(NC[C@H]1COCCN1C(=O)N1CCC(CO)C1)c1ccc(-c2noc(C(F)(F)F)n2)cc1 (stereo partly shown)"
  system_tested: "HDAC6 enzyme (Homo sapiens)"
  HDAC6 inhibitory rate (%) (1 μM): 94
- compound: "O=C(NC[C@H]1COCCN1C(=O)N1CCOCC1CO)c1ccc(-c2noc(C(F)(F)F)n2)cc1 (stereo partly shown)"
  system_tested: "HDAC6 enzyme (Homo sapiens)"
  HDAC6 inhibitory rate (%) (1 μM): 96
- compound: "O=C(NC[C@H]1COCCN1C(=O)N1CCC(CCO)C1)c1ccc(-c2noc(C(F)(F)F)n2)cc1 (stereo partly shown)"
  system_tested: "HDAC6 enzyme (Homo sapiens)"
  HDAC6 inhibitory rate (%) (1 μM): 92

* * *

# system_tested: HDAC6 enzyme (Homo sapiens)
# Construct: prepared by transducing full length HDAC1 and HDAC6 genes into Sf-9 insect cells; GST; purchased SignalChem; host or cells: Sf-9 insect cells
# method: HDAC6 enzyme inhibitory assay (HDAC-Glo I/II Assay kit)
# Format: biochemical
# stated_conditions: 1 μM test compound; read-out: HDAC6 inhibitory rate (%) (1 μM)

- compound: "O=C(NCC1COCCN1C(=O)c1ccccc1)c1ccc(-c2noc(C(F)(F)F)n2)cc1 (stereo in doubt) [Example 111]"
  inhibition at 1 µM (%): 101
- compound: "O=C(NCC1COCCN1C(=O)c1cc(F)c(F)c(F)c1)c1ccc(-c2noc(C(F)(F)F)n2)cc1 (stereo in doubt)"
  inhibition at 1 µM (%): 97
- compound: "O=C(NCC1COCCN1C(=O)c1ccccc1)c1ccc(-c2noc(C(F)(F)F)n2)cn1 (stereo not drawn)"
  inhibition at 1 µM (%): 97
- compound: "O=C(NCC1COCCN1C(=O)C1CCNC1=O)c1ccc(-c2noc(C(F)(F)F)n2)cc1 (stereo in doubt)"
  inhibition at 1 µM (%): 57
- compound: "O=C(NCC1COCCN1C(=O)c1ccccc1Cl)c1ccc(-c2noc(C(F)(F)F)n2)s1 (stereo not drawn)"
  inhibition at 1 µM (%): 96
- compound: "O=C(NC[C@H]1COCCN1C(=O)c1cccc(OCCO)c1)c1ccc(-c2noc(C(F)(F)F)n2)cc1"
  inhibition at 1 µM (%): 98
- compound: "O=C(NC[C@H]1COCCN1C(=O)N1CCCC(CO)C1)c1ccc(-c2noc(C(F)(F)F)n2)cc1 (stereo partly drawn)"
  inhibition at 1 µM (%): 89
- compound: "O=C(NCC1COCCN1C(=O)c1ccccc1-c1ccccc1)c1ccc(-c2noc(C(F)(F)F)n2)cc1 (stereo not drawn)"
  inhibition at 1 µM (%): 96
- compound: "O=C(NC[C@H]1COCCN1C(=O)C1CC1)c1ccc(-c2noc(C(F)(F)F)n2)cc1"
  inhibition at 1 µM (%): 92
- compound: "O=C(NCC1COCCN1C(=O)c1cccc(Cl)c1)c1ccc(-c2noc(C(F)(F)F)n2)s1 (stereo not drawn)"
  inhibition at 1 µM (%): 94
- compound: "Cc1cc(C(=O)N2CCOC[C@H]2CNC(=O)c2ccc(-c3noc(C(F)(F)F)n3)cc2)cc(O)n1"
  inhibition at 1 µM (%): 36
- compound: "Cc1cc(C(=O)N2CCOCC2CNC(=O)c2ccc(-c3noc(C(F)(F)F)n3)s2)on1 (stereo not drawn)"
  inhibition at 1 µM (%): 89
- compound: "Cc1nnsc1C(=O)N1CCOC[C@@H]1CNC(=O)c1ccc(-c2noc(C(F)(F)F)n2)cc1"
  inhibition at 1 µM (%): 101
- compound: "N#Cc1cc(F)cc(C(=O)N2CCOC[C@@H]2CNC(=O)c2ccc(-c3noc(C(F)(F)F)n3)cn2)c1"
  inhibition at 1 µM (%): 95
- compound: "O=C(NCC1COCCN1C(=O)c1cccc(F)c1)c1ccc(-c2noc(C(F)(F)F)n2)s1 (stereo not drawn)"
  inhibition at 1 µM (%): 97
- compound: "Cc1oncc1C(=O)N1CCOC[C@@H]1CNC(=O)c1ccc(-c2noc(C(F)(F)F)n2)cn1"
  inhibition at 1 µM (%): 97
- compound: "O=C(NCC1COCCN1C(=O)c1cc(Cl)cc(Cl)c1)c1ccc(-c2noc(C(F)(F)F)n2)s1 (stereo not drawn)"
  inhibition at 1 µM (%): 96
- compound: "O=C(NC[C@H]1COCCN1C(=O)C(c1ccccc1)c1ccccc1)c1ccc(-c2noc(C(F)(F)F)n2)cc1"
  inhibition at 1 µM (%): 56
- compound: "N#CC1(C(=O)N2CCOC[C@H]2CNC(=O)c2ccc(-c3noc(C(F)(F)F)n3)cc2)CC1"
  inhibition at 1 µM (%): 90
- compound: "O=C(NCC1COCCN1C(=O)c1ccccc1N1CCOCC1)c1ccc(-c2noc(C(F)(F)F)n2)cc1 (stereo in doubt)"
  inhibition at 1 µM (%): 97
- compound: "O=C(NCC1COCCN1C(=O)C(F)(F)c1ccccc1)c1ccc(-c2noc(C(F)(F)F)n2)s1 (stereo not drawn)"
  inhibition at 1 µM (%): 99
- compound: "O=C(NC[C@H]1COCCN1C(=O)N1CCC(CO)CC1)c1ccc(-c2noc(C(F)(F)F)n2)cc1"
  inhibition at 1 µM (%): 90
- compound: "CC(C)(C(=O)N1CCOCC1CNC(=O)c1ccc(-c2noc(C(F)(F)F)n2)cc1)c1ccccc1 (stereo in doubt)"
  inhibition at 1 µM (%): 99
- compound: "O=C(NC[C@@H]1COCCN1C(=O)C1CCCO1)c1ccc(-c2noc(C(F)(F)F)n2)cc1 (stereo partly drawn)"
  inhibition at 1 µM (%): 90
- compound: "O=C(NC[C@H]1COCCN1C(=O)C1CCOCC1)c1ccc(-c2noc(C(F)(F)F)n2)cc1"
  inhibition at 1 µM (%): 94
- compound: "Cc1ccsc1C(=O)N1CCOC[C@@H]1CNC(=O)c1ccc(-c2noc(C(F)(F)F)n2)cc1"
  inhibition at 1 µM (%): 100
- compound: "O=C(NCC1COCCN1C(=O)Cc1cccs1)c1ccc(-c2noc(C(F)(F)F)n2)s1 (stereo not drawn)"
  inhibition at 1 µM (%): 95
- compound: "O=C(NC[C@H]1COCCN1C(=O)N1CCCOCC1)c1ccc(-c2noc(C(F)(F)F)n2)cc1"
  inhibition at 1 µM (%): 97
- compound: "O=C(NC[C@H]1COCCN1C(=O)N1CCOCC1CO)c1ccc(-c2noc(C(F)(F)F)n2)cc1 (stereo partly drawn)"
  inhibition at 1 µM (%): 98
- compound: "O=C(NCC1COCCN1C(=O)c1cc(Cl)cc(Cl)c1)c1ccc(-c2noc(C(F)(F)F)n2)cc1 (stereo not drawn) [Example 30]"
  inhibition at 1 µM (%): 98
